# Test system: HSC-4
# method.description: Selectivity index, ratio of CC50 for normal cells to CC50 for human HSC4 cells
# Assay type: functional
parameter.measured: Selectivity Index

The cases that follow already have their Selectivity Index on record.
For record O=C1/C(=C/c2ccc(Cl)cc2)CN(P(=O)(O)O)C/C1=C\c1ccc(Cl)cc1 the listed Selectivity Index is 6.3

Recorded result, CCOP(=O)(OCC)N1C/C(=C\c2ccccc2[N+](=O)[O-])C(=O)/C(=C/c2ccccc2[N+](=O)[O-])C1 , Selectivity Index: 7.8

Batch of 4 compounds: report Selectivity Index for each.
1. COc1ccc(/C=C2\CN(P(=O)(O)O)C/C(=C\c3ccc(OC)c(OC)c3)C2=O)cc1OC
2. CCOP(=O)(OCC)N1C/C(=C\c2ccc(OC)cc2)C(=O)/C(=C/c2ccc(OC)cc2)C1
3. CCOP(=O)(OCC)N1C/C(=C\c2ccc(OC)c(OC)c2)C(=O)/C(=C/c2ccc(OC)c(OC)c2)C1
4. O=C1/C(=C/c2ccc([N+](=O)[O-])cc2)CN(P(=O)(O)O)C/C1=C\c1ccc([N+](=O)[O-])cc1

1. 5
2. 36
3. 13
4. 23

Please give Selectivity Index, item by item, for the list that follows.
1. COc1cc(/C=C2\CN(P(=O)(O)O)C/C(=C\c3cc(OC)c(OC)c(OC)c3)C2=O)cc(OC)c1OC
2. Cc1ccc(/C=C2\CN(P(=O)(O)O)C/C(=C\c3ccc(C)cc3)C2=O)cc1
3. CCOP(=O)(OCC)N1C/C(=C\c2ccc([N+](=O)[O-])cc2)C(=O)/C(=C/c2ccc([N+](=O)[O-])cc2)C1

6.7
5.3
3.3

Hi! Can you tell me Selectivity Index for each of these compounds?
1. CCOP(=O)(OCC)N1C/C(=C\c2ccccc2)C(=O)/C(=C/c2ccccc2)C1
2. CCOP(=O)(OCC)N1C/C(=C\c2ccc(C)cc2)C(=O)/C(=C/c2ccc(C)cc2)C1

8.4
4.8

###

# System: HL-60
# method.description: Selectivity index, ratio of CC50 for normal cells to CC50 for human HL60 cells
# Type: functional
Threshold 10: Selectivity Index strictly smaller gives t, otherwise f.

Worked set:
A record lists CCOP(=O)(OCC)N1C/C(=C\c2ccccc2)C(=O)/C(=C/c2ccccc2)C1 . Is its Selectivity Index below 10? f

Decide: Selectivity Index of O=C1/C(=C/c2cccc([N+](=O)[O-])c2)CN(P(=O)(O)O)C/C1=C\c1cccc([N+](=O)[O-])c1 strictly below 10? f

Below 10 on Selectivity Index? Entry CCOP(=O)(OCC)N1C/C(=C\c2ccc(OC)c(OC)c2)C(=O)/C(=C/c2ccc(OC)c(OC)c2)C1 t

Determine whether this compound shows Selectivity Index lower than 10 (ties excluded): CCOP(=O)(OCC)N1C/C(=C\c2ccccc2[N+](=O)[O-])C(=O)/C(=C/c2ccccc2[N+](=O)[O-])C1 f

In plain terms, does O=C1/C(=C/c2ccccc2)CN(P(=O)(O)O)C/C1=C\c1ccccc1 come in under 10 for Selectivity Index? f

Continuing:
Decide: Selectivity Index of COc1ccc(/C=C2\CN(P(=O)(O)O)C/C(=C\c3ccc(OC)c(OC)c3)C2=O)cc1OC strictly below 10? t

Quick check: Selectivity Index of CCOP(=O)(OCC)N1C/C(=C\c2cc(OC)c(OC)c(OC)c2)C(=O)/C(=C/c2cc(OC)c(OC)c(OC)c2)C1 under 10? t

###

# method.description: Cytotoxicity against human HPC cells
# Format: cell-based
parameter.measured: CC50 (µM)
Give bare numbers, in µM.

Consider the worked cases shown below.
Quick note, CC50 for CCOP(=O)(OCC)N1C/C(=C\c2ccc([N+](=O)[O-])cc2)C(=O)/C(=C/c2ccc([N+](=O)[O-])cc2)C1 landed at 1.9

Memo: COc1ccc(/C=C2\CN(P(=O)(O)O)C/C(=C\c3ccc(OC)cc3)C2=O)cc1 , reported CC50: 54

# molecule COc1cc(/C=C2\CN(P(=O)(O)O)C/C(=C\c3cc(OC)c(OC)c(OC)c3)C2=O)cc(OC)c1OC ; its CC50 = 0.59

GET /value?item= CCOP(=O)(OCC)N1C/C(=C\c2ccc(C)cc2)C(=O)/C(=C/c2ccc(C)cc2)C1 &field=CC50 returns 18

COc1ccc(/C=C2\CN(P(=O)(O)O)C/C(=C\c3ccc(OC)c(OC)c3)C2=O)cc1OC yielded CC50 of 1.3

CC50 recorded for this molecule, O=C1/C(=C/c2ccccc2[N+](=O)[O-])CN(P(=O)(O)O)C/C1=C\c1ccccc1[N+](=O)[O-] , is 2.1

According to the records, this molecule CCOP(=O)(OCC)N1C/C(=C\c2ccccc2)C(=O)/C(=C/c2ccccc2)C1 displays CC50 of 6.5

# CC50 (molecule: O=C1/C(=C/c2cccc([N+](=O)[O-])c2)CN(P(=O)(O)O)C/C1=C\c1cccc([N+](=O)[O-])c1 ) is 2.2

Lab note: each molecule below needs its CC50 filled in.
1. O=C1/C(=C/c2ccccc2)CN(P(=O)(O)O)C/C1=C\c1ccccc1
2. O=C1/C(=C/c2ccc(Cl)cc2)CN(P(=O)(O)O)C/C1=C\c1ccc(Cl)cc1
3. CCOP(=O)(OCC)N1C/C(=C\c2ccc(OC)c(OC)c2)C(=O)/C(=C/c2ccc(OC)c(OC)c2)C1
4. CCOP(=O)(OCC)N1C/C(=C\c2ccccc2[N+](=O)[O-])C(=O)/C(=C/c2ccccc2[N+](=O)[O-])C1

1: 3.2; 2: 2.6; 3: 6.2; 4: 8.3

###

# method.description: Cytotoxicity against human HGF cells
# Assay type: cell-based
parameter.measured: CC50 (µM)
Numbers only, in µM.

Entry under test: CCOP(=O)(OCC)N1C/C(=C\c2ccc(OC)c(OC)c2)C(=O)/C(=C/c2ccc(OC)c(OC)c2)C1 . Its CC50 was 7.4

Entry under test: CCOP(=O)(OCC)N1C/C(=C\c2ccc(OC)cc2)C(=O)/C(=C/c2ccc(OC)cc2)C1 . Its CC50 was 53

Lab note: measured CC50 of COc1ccc(/C=C2\CN(P(=O)(O)O)C/C(=C\c3ccc(OC)cc3)C2=O)cc1 was 107

CC50 for CCOP(=O)(OCC)N1C/C(=C\c2ccccc2[N+](=O)[O-])C(=O)/C(=C/c2ccccc2[N+](=O)[O-])C1 is 18

Could you now consider this next compound?
The compound listed as O=C1/C(=C/c2ccccc2[N+](=O)[O-])CN(P(=O)(O)O)C/C1=C\c1ccccc1[N+](=O)[O-] has a reported CC50 of 1.4

###

Assign Selectivity Index to each entry below.
# Test system: HL-60
# method.description: Selectivity index, ratio of CC50 for normal cells to CC50 for human HL60 cells
# Assay type: functional
One number for each entry.

Some solved cases for reference:
With HL-60 as the test system, O=C1/C(=C/c2ccc(Cl)cc2)CN(P(=O)(O)O)C/C1=C\c1ccc(Cl)cc1 showed Selectivity Index of 9.8

Record Cc1ccc(/C=C2\CN(P(=O)(O)O)C/C(=C\c3ccc(C)cc3)C2=O)cc1 / HL-60, Selectivity Index recorded as 4.6

Form field Selectivity Index for item N[C@@H](Cc1ccc(N(CCCl)CCCl)cc1)C(=O)O on HL-60: 150

Here is another molecule to look at.
Fill in: HL-60 Selectivity Index for CCOP(=O)(OCC)N1C/C(=C\c2ccc(C)cc2)C(=O)/C(=C/c2ccc(C)cc2)C1 = 6.7

meta.source: ChEMBL document CHEMBL1268945
